- System: UACC-62 melanoma
- ASSAY_EXPLANATION: NCI-60 one-dose screen, 48 h
- MEASUREMENT_PARAMETERS: 10 µM unless noted
This is part of a sample that, as a whole, favours compounds with a hit. Of some 83,000 tested, about 20% had one in any assay. Activity calls are given as the source filed them. How the source made its calls: active means growth percent below 10; inactive means the rest.
Entry note: the call must match one of Y for active, N for inactive

Exercise: Entry CC(=O)OC1CC2C(C)(C)OC3CC(=O)OCC32C2CCC3(C)C(=CCC3c3ccoc3)C12C (configuration not stated) : call = ?
Solution: N

* * *

Listing: growth of selected compounds
- Test system: MCF7 breast
- ASSAY_EXPLANATION: NCI-60 one-dose screen, 48 h (100 = growth as untreated, 0 = no growth, -100 = all killed)
- MEASUREMENT_PARAMETERS: 10 µM unless noted
This is part of a sample that, as a whole, favours compounds with a hit. Of some 83,000 tested, about 20% had one in any assay.
Kindly provide the numeric value in % only, without the unit symbol.

The cases that follow already have their growth on record.
COMPOUND | growth, %
O=C(NCc1ccco1)Nc1c(Cl)cc(Cl)cc1Cl | 92.8
C#CC(C(C)C)N(CCO)CCCC (stereo not given) | 93.9

Exercise: Request: growth, test system MCF7 breast, entry C/C(=C\c1ccc([N+](=O)[O-])cc1)C(=O)O
Solution: 95.7

Exercise: # iterate: CCOC(=O)C1=C(C)NC(=O)NC1c1cccs1 (stereo not given)
Solution: 101

Exercise: CCOC(=O)CNN , same question.
Solution: 97.9

Exercise: Try the compound CCN(CC)C(=O)/C=C(/C)c1ccccc1
Solution: 102

Exercise: Same question, CCCCCCCCCCC1CO1 (stereo not given) this time
Solution: 92.4

* * *

- Tested on: SR leukemia
- ASSAY_EXPLANATION: NCI-60 one-dose screen, 48 h
- MEASUREMENT_PARAMETERS: 10 µM
About 83,000 compounds went through this panel and 20% of them were active in at least one assay; those are over-represented in the sample as a whole. Calls of active or inactive are those of the source. Rule for the calls: active = growth percent below 10; inactive = the rest.
Your response should consist of one outcome taken from active, inactive

Answered examples (3):
COMPOUND | DISCRETE_LABEL
C/C=C/CC(C)C(O)C1C(=O)NC(CC)C(=O)N(C)CC(=O)N(C)C(CC(C)C)C(=O)NC(C(C)C)C(=O)N(C)C(CC(C)C)C(=O)NC(C)C(=O)NC(C)C(=O)N(C)C(CC(C)C)C(=O)N(C)C(CC(C)C)C(=O)N(C)C(C(C)C)C(=O)N1C (stereo not drawn) | active
NC(C(=O)O)c1ccc([N+](=O)[O-])cc1 (stereo not drawn) | inactive
CC(=O)N(C)c1ccc([N+](=O)[O-])cc1 | inactive

Exercise: I'd appreciate the recorded outcome for CCCOC(=O)C(O)c1ccccc1 (stereo not drawn) from this test.
Solution: inactive

Exercise: Moving on to CC(=O)Nc1ccc(NC(C)=O)c2c1C(=O)c1ccccc1C2=O
Solution: inactive

Exercise: Do the same for CC(=O)OC(OC(C)=O)C1CCCO1 (stereo not drawn) please
Solution: inactive

Exercise: For COCCOC(=O)c1ccc(C(C)C)cc1 then?
Solution: inactive

Exercise: Also check Nc1ccc(C(=O)c2ccc(N)c(Br)c2)cc1Br
Solution: inactive

* * *

- Tested on: LOX IMVI melanoma
- ASSAY_EXPLANATION: NCI-60 one-dose screen, 48 h (100 = growth as untreated, 0 = no growth, -100 = all killed)
- MEASUREMENT_PARAMETERS: 10 µM
About 83,000 compounds went through this panel and 20% of them were active in at least one assay; those are over-represented in the sample as a whole.
Measured growth, listed per entry for reference.
Dear colleague, please return just the value in %, with no unit written.

MOLECULE | growth (%)
Sc1ccc(Nc2c3ccccc3nc3ccccc23)cc1 | 88.5

Exercise: Name the recorded growth for COCCCNC(=O)c1nnn2c1nc(N)c1cc(Cl)ccc12 .
Solution: 88.3

Exercise: Field entry: c1cc[n+](C2c3ccccc3C([n+]3ccccc3)c3ccccc32)cc1 (centres undefined)
Solution: 76.1

Exercise: One more molecule: O=C1Cc2cc(O)ccc2O1
Solution: 83.1

Exercise: Try the molecule CCOc1ccc(/C=C/C(=O)c2ccccc2)cc1
Solution: 93.5

* * *

- Tested on: 786-0 renal
- ASSAY_EXPLANATION: NCI-60 one-dose screen, 48 h (100 = growth as untreated, 0 = no growth, -100 = all killed)
- MEASUREMENT_PARAMETERS: 10 µM
About 83,000 compounds went through this panel and 20% of them were active in at least one assay; those are over-represented in the sample as a whole.
A collection of compounds and their measured growth
Form entry: value (%) — number only.

STRUCTURE_SMILES | TARGET_DESC | growth / %
CCOC(=O)/C(=C/c1ccc(OC)cc1)N(CC)CC | 786-0 renal | 103
CC(=O)c1c[nH]c2ccccc12 | 786-0 renal | 103

Exercise: Which measured growth value corresponds to CCNCCCCNCCCCNCCCCNCCCCNCC ?
Solution: 150

Exercise: Quick one: COCCOC(=O)c1ccc(C(C)C)cc1
Solution: 93.8

Exercise: Proceed to COc1cc(C(=O)NC(=S)Nc2ccc3ccccc3c2)cc(OC)c1OC
Solution: 116

Exercise: Also CC(C)(C)n1nc(C2CC2)c(Br)c1NC(=O)c1ccccc1F ?
Solution: 99.6

* * *

- Tested on: SF-539 CNS
- ASSAY_EXPLANATION: NCI-60 one-dose screen, 48 h (100 = growth as untreated, 0 = no growth, -100 = all killed)
- MEASUREMENT_PARAMETERS: 10 µM
About 83,000 compounds went through this panel and 20% of them were active in at least one assay; those are over-represented in the sample as a whole.
EXPERIMENTAL_ENDPOINT: growth (%)
Reply with just the number (in %).

COMPOUND | UNIT_ABBREV | growth
Cc1ccc(N)cc1[N+](=O)[O-] | % | 113
C=CCNC(=O)c1ccc(OC)cc1 | % | 100
COc1ccc(/C(C#N)=C2C=C/C(=N/O)c3ccccc3\2)cc1 | % | -14.7

Exercise: Quick one: growth of NC(N)=Nc1cc2ccccc2c2ccccc12 ?
Solution: 89.1

Exercise: How about COc1cc2c3cc1Oc1c(OC)c(OC)cc4c1C(Cc1ccc(O)c(c1)Oc1ccc(cc1)CC3N(C)CC2)N(C)CC4 (stereo not given) ?
Solution: -23.5

* * *

Reported growth is given for each of the following molecules.
- Test system: DU-145 prostate
- ASSAY_EXPLANATION: NCI-60 one-dose screen, 48 h (100 = growth as untreated, 0 = no growth, -100 = all killed)
- MEASUREMENT_PARAMETERS: 10 µM
This is part of a sample that, as a whole, favours compounds with a hit. Of some 83,000 tested, about 20% had one in any assay.
Write it as a number; the unit % goes unstated.

MOLECULE | UNIT_ABBREV | growth
Cc1ccncc1C(N)=O | % | 106
Cc1ncc(C#N)c(N)n1 | % | 114

Exercise: Fill in: growth of NC(=O)N/N=C\c1ccco1 is ___
Solution: 131

Exercise: Could you do the same for CCCNc1ccc(C2=NCCCN2)cc1 , please?
Solution: 103

Exercise: Then this molecule: C[C@]12CC[C@@H]3c4ccc(OCC(=O)O)cc4CC[C@H]3[C@@H]1CCC2=O
Solution: 109

Exercise: Similarly, COC(=O)c1cccc(Br)c1 ?
Solution: 111

Exercise: Please do the same for O=C1C=C(O)C(=O)C=C1O as well.
Solution: 119

* * *

- System: KM12 colon
- ASSAY_EXPLANATION: NCI-60 one-dose screen, 48 h (100 = growth as untreated, 0 = no growth, -100 = all killed)
- MEASUREMENT_PARAMETERS: 10 µM
About 83,000 compounds went through this panel and 20% of them were active in at least one assay; those are over-represented in the sample as a whole.
The entries below come with measured growth values attached.
Express it in %; write the number only.

MOLECULE | TARGET_DESC | EXPERIMENTAL_ENDPOINT | UNIT_ABBREV | READING
Cc1ccc(C)n1-c1ccsc1C(=O)NNC(=O)CCl | KM12 colon | growth | % | 104

Exercise: Request - read-out growth | tested on KM12 colon | molecule CC(=O)c1ccc(C(C)(C)C)cc1
Solution: 102

Exercise: Next record, please: COC(=O)c1ccccc1Br
Solution: 94.7

Exercise: Now try CC1(C(=O)O)NC(C(=O)O)Cc2c1[nH]c1ccccc21 (centres undefined) .
Solution: 103

Exercise: Consider next the molecule Cc1nc2c(ccc3ccccc32)s1 in the same way.
Solution: 117

Every entry's value here was drawn from PubChem BioAssay (NCI).
